# target.under.test: HEK cells stably transfected with tetracycline inducible hNR1 and hNR2A (Homo sapiens, UniProt Q05586+Q12879)
# Construct: expressed in transfected cells; host or cells: HEK cells, stably transfected, tetracycline/doxycycline inducible
# Sequence (Q12879 23-1464, other chains not shown): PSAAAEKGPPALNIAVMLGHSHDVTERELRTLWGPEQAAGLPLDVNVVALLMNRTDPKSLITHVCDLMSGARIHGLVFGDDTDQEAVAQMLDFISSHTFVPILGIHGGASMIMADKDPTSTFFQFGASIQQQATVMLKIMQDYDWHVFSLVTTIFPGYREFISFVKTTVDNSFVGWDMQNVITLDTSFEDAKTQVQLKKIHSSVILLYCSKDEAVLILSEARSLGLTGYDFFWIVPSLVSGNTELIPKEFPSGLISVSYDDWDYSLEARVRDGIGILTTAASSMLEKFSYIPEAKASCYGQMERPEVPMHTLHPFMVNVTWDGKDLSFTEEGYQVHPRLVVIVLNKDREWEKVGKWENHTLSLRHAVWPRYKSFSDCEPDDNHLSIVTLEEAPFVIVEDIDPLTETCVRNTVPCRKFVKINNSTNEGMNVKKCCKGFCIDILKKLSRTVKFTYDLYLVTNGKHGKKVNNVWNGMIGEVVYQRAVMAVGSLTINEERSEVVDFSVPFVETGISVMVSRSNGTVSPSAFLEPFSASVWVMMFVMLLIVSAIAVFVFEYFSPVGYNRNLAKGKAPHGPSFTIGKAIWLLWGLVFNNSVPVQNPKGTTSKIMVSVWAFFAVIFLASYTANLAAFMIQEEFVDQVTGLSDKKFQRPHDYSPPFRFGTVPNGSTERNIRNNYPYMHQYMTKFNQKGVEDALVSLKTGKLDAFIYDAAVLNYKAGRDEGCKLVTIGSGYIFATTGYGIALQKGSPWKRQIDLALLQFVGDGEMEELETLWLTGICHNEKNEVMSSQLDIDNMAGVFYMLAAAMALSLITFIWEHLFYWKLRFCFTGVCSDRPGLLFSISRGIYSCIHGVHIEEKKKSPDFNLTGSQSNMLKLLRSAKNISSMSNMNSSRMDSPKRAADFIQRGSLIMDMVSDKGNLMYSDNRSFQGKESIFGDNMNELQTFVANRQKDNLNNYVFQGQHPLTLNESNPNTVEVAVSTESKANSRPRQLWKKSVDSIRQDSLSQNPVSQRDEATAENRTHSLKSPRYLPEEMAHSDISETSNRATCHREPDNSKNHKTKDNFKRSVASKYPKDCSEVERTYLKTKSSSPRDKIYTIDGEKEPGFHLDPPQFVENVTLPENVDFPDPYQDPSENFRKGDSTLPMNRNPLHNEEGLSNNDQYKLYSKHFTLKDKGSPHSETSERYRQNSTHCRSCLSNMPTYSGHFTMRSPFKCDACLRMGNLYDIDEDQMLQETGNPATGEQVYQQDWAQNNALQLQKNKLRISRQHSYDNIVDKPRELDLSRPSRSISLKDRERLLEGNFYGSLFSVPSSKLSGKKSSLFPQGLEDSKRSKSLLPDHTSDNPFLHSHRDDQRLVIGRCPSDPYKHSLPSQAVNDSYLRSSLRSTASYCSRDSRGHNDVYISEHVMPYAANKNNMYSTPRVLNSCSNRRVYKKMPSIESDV
# assay.summary: Assay 1: Cell-Based Assay, cytosolic calcium response to positive allosteric modulators (with 30 μM glycine and 300 nM L-glutamate, EC30)
# applied.conditions: Table 3; cytosolic calcium response, with 30 μM glycine and 300 nM L-glutamate (EC30); — = no plateau was reached
Would you mind telling me the reported pEC50 of each entry?
Convention used: pEC50 is expressed as -log10 of the molar concentration.

Problem: # pEC50 lookup, item Cc1sc2nc(Cn3nc(Cl)cc3C(F)(F)F)cc(=O)n2c1C(C)(C)O
Result: 6.13

Problem: // returns reported pEC50 for input O=c1cc(Cn2nc(Cl)cc2C(F)(F)F)nc2sc(C(F)(F)F)c(-c3cncnc3)n12
Result: 4.56

Problem: Suppose we examine the compound CCNC(=O)c1c(OCC(F)(F)F)sc2nc(Cc3cccc(C(F)(F)F)c3F)cc(=O)n12 ; what pEC50 value has been reported?
Result: 5.86

Problem: Give the measured pEC50 of Cc1sc2nc(Cn3nc(C(F)(F)F)cc3Br)cc(=O)n2c1C1CC1C#N (single isomer, unassigned) [compound 275] .
Result: 7.13

Problem: Record request: pEC50 value, item N#CC1CC1c1c(C(F)(F)F)sc2nc(Cn3nc(C(F)(F)F)cc3Cl)cc(=O)n12 (single isomer, unassigned) [compound 207]
Result: 8.13

Problem: Need pEC50 of CCNC(=O)c1c(OC)sc2nc(Cn3nc(C(F)(F)F)cc3Cl)cc(=O)n12 , thanks.
Result: 6.17

Problem: Which measured pEC50 value corresponds to Cc1sc2nc(Cc3cc(C(F)(F)F)ccc3Cl)cc(=O)n2c1C1CC1C#N (centres unmarked) ?
Result: 4.95

Problem: // lookup pEC50 for Cc1sc2nc(Cn3ccc(C(F)(F)F)n3)cc(=O)n2c1C1CC1C#N (single isomer, unassigned) [compound 272]
Result: 6.60
